B1: library; a variant is named by its letters at N, in order (parent)
chain: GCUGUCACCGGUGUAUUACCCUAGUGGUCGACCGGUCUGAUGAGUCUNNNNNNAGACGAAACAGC

# Variants of: B1
# experimentalDetails: normalized RNA/DNA level with ligand (relative to sTRSVctl = 100) (log10 (% of sTRSVctl)); ligand: hypoxanthine (xanthine aptamer); higher = less ribozyme self-cleavage, higher mRNA level
# testConditions: ligand concentration (+) RNA-Seq: 5 mM, HEK293T, reporter: mCherry (pCS4076), ligand present: yes
quantityMeasured: normalized RNA/DNA level with ligand (log10)
// response body must contain only the number

Illustrative cases are given below, each with its answer.
# seqString, measurement
measured = [
    ("GCUGUCACCGGUGUAUUACCCUAGUGGUCGACCGGUCUGAUGAGUCUGACGCAAGACGAAACAGC [GACGCA]", 1.91),
    ("GCUGUCACCGGUGUAUUACCCUAGUGGUCGACCGGUCUGAUGAGUCUACCUUCAGACGAAACAGC [ACCUUC]", 1.96),
    ("GCUGUCACCGGUGUAUUACCCUAGUGGUCGACCGGUCUGAUGAGUCUGGAAUCAGACGAAACAGC [GGAAUC]", 1.9),
]

Data request, read-out normalized RNA/DNA level with ligand (log10), for GCUGUCACCGGUGUAUUACCCUAGUGGUCGACCGGUCUGAUGAGUCUCAGGCUAGACGAAACAGC [CAGGCU]
1.94

Next variant up: GCUGUCACCGGUGUAUUACCCUAGUGGUCGACCGGUCUGAUGAGUCUUUCACUAGACGAAACAGC [UUCACU]
1.96

Next variant up: GCUGUCACCGGUGUAUUACCCUAGUGGUCGACCGGUCUGAUGAGUCUAAUGUUAGACGAAACAGC [AAUGUU]
1.9

Next variant up: GCUGUCACCGGUGUAUUACCCUAGUGGUCGACCGGUCUGAUGAGUCUCACUGGAGACGAAACAGC [CACUGG]
1.9

Next variant up: GCUGUCACCGGUGUAUUACCCUAGUGGUCGACCGGUCUGAUGAGUCUUGCCGUAGACGAAACAGC [UGCCGU]
1.9

Next variant up: GCUGUCACCGGUGUAUUACCCUAGUGGUCGACCGGUCUGAUGAGUCUCCCAGUAGACGAAACAGC [CCCAGU]
1.93

Next variant up: GCUGUCACCGGUGUAUUACCCUAGUGGUCGACCGGUCUGAUGAGUCUUACUUUAGACGAAACAGC [UACUUU]
1.97

Next variant up: GCUGUCACCGGUGUAUUACCCUAGUGGUCGACCGGUCUGAUGAGUCUCUCGUUAGACGAAACAGC [CUCGUU]
1.94

Next variant up: GCUGUCACCGGUGUAUUACCCUAGUGGUCGACCGGUCUGAUGAGUCUAUUAGGAGACGAAACAGC [AUUAGG]
1.81

Next variant up: GCUGUCACCGGUGUAUUACCCUAGUGGUCGACCGGUCUGAUGAGUCUUUCUCUAGACGAAACAGC [UUCUCU]
1.99

Next variant up: GCUGUCACCGGUGUAUUACCCUAGUGGUCGACCGGUCUGAUGAGUCUUAACCGAGACGAAACAGC [UAACCG]
1.95

Next variant up: GCUGUCACCGGUGUAUUACCCUAGUGGUCGACCGGUCUGAUGAGUCUCUGAAGAGACGAAACAGC [CUGAAG]
1.92

Next variant up: GCUGUCACCGGUGUAUUACCCUAGUGGUCGACCGGUCUGAUGAGUCUGUACCGAGACGAAACAGC [GUACCG]
1.9

Next variant up: GCUGUCACCGGUGUAUUACCCUAGUGGUCGACCGGUCUGAUGAGUCUUAUACCAGACGAAACAGC [UAUACC]
1.95

Data origin: the supplement of paper PMC6757056
